- System: SK-MEL-28 melanoma
- experiment.summary: NCI-60 one-dose screen, 48 h
- measurement.parameters: 10 µM
- Experimental: Growth inhibition of the SK-MEL-28 human tumor cell line is measured as a screen for anti-cancer activity. Cells are grown in 96 well plates and exposed to the test compound for 48 hours. Compounds are tested at a single concentration, which is 10^-5 M for most compounds. The reported endpoint is percent growth (GI% or GIPRCNT), where numbers from 0 - 100% represent growth inhibition, and numbers from -100% - 0 represent cell death. For example, a value of 40 represents 60% growth inhibition. […]
About 83,000 compounds went through this panel and 20% of them were active in at least one assay; those are over-represented in the sample as a whole. Active and inactive are the calls of the source. How the source made its calls: active means growth percent below 10; inactive means the rest.
Possible outcomes: TRUE (active), FALSE (inactive)

{"compound": "O=c1ccn(C2CC(O)C(COC(c3ccccc3)(c3ccccc3)c3ccccc3)O2)c(=O)[nH]1 (stereo not given)", "cat": "FALSE"}
{"compound": "NC(=O)SCC(=O)NNc1ccccc1", "cat": "FALSE"}
{"compound": "COc1c(O)cc2oc3cc(O)c(CC=C(C)C)c(O)c3c(=O)c2c1CC=C(C)C", "cat": "FALSE"}
{"compound": "Cc1nc(N=C(N)N)nc2ccc3ccccc3c12", "cat": "TRUE"}
{"compound": "COC(=O)C1C(O)C(C)C(O)C(C)C=C(C)C2=C3C(=C(C)C(=O)c4c(O)c(c(C)c(OC(C)=O)c43)NC(=O)C(C)=C/C=C\\C(C)C(O)C(C)C1O)OCO2 (stereo not given)", "cat": "FALSE"}
{"compound": "CCC(C)(C)c1cc(O)c(C(C)(C)CC)cc1O", "cat": "FALSE"}
{"compound": "CC[N+](CC)=c1ccc2nc3c(cc(N)c4ccccc43)oc-2c1", "cat": "TRUE"}
{"compound": "Clc1cc(Cl)c(Cl)nn1", "cat": "FALSE"}
{"compound": "OCC(O)C(O)C(O)C(/C=N/Nc1ccccc1)=N/Nc1ccccc1 (stereo not given)", "cat": "FALSE"}
{"compound": "O=C1C=C(O)c2ccccc2C1=O.[Ag]", "cat": "FALSE"}

###

- System: NCI/ADR-RES ovarian
- experiment.summary: NCI-60 one-dose screen, 48 h (100 = growth as untreated, 0 = no growth, -100 = all killed)
- measurement.parameters: 10 µM
About 83,000 compounds went through this panel and 20% of them were active in at least one assay; those are over-represented in the sample as a whole.
growth: recorded values

{"compound": "COc1ccc(CC(=O)c2ccc(O)cc2O)cc1", "experimental.target": "NCI/ADR-RES ovarian", "unit.annotation": "%", "growth": 105}
{"compound": "OCC(O)C(O)C(O)C(/C=N/Nc1ccccc1)=N/Nc1ccccc1 (centres undefined)", "experimental.target": "NCI/ADR-RES ovarian", "unit.annotation": "%", "growth": 79.8}
{"compound": "CC(=O)OCC(OC(C)=O)C(OC(C)=O)C(OC(C)=O)C(OC(C)=O)C(/C=N/Nc1ccccc1)=N/Nc1ccccc1 (centres undefined)", "experimental.target": "NCI/ADR-RES ovarian", "unit.annotation": "%", "growth": 72.4}
{"compound": "COc1c(O)cc2oc3cc(O)c(CC=C(C)C)c(O)c3c(=O)c2c1CC=C(C)C", "experimental.target": "NCI/ADR-RES ovarian", "unit.annotation": "%", "growth": 38.6}
